Taken from patent US20240400638A1.

Field: EC50 (nM), OVCAR 5 cells (cAMP). Provide a value for each of the binders that follow.
- measured-target: T1, human RXFP1 (human, UniProt Q9HBX9 1-757)
- T1 sequence (looked up): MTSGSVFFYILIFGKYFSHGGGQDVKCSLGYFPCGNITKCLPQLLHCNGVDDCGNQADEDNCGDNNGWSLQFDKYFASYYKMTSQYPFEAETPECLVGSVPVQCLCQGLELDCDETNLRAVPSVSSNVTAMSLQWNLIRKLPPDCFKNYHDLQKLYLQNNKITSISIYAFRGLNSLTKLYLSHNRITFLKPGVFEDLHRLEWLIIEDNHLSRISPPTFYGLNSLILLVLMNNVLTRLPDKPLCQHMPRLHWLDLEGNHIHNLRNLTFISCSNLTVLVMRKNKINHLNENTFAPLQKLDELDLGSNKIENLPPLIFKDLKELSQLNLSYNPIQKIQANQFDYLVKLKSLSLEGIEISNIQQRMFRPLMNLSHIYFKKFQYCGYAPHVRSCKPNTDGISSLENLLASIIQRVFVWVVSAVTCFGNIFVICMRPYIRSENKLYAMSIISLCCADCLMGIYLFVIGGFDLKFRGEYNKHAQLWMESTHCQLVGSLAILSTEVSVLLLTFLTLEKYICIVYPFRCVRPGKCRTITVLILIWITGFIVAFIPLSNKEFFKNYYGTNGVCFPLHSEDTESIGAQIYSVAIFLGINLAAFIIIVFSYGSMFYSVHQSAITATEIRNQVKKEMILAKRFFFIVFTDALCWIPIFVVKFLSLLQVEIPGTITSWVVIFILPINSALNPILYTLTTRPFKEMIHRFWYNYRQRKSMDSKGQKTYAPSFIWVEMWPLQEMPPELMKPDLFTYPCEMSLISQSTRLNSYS
- experiment-summary: cell-based or functional assay
Numbered stars: 1 amine (or outer) side, 2 acyl side, 3 side chain; on linkers, the order of the positions; unused ones are H or OH. Square brackets hold non-standard residues; d marks the D form. Side chains are listed from the residue outwards. * marks the point of attachment. TTDS = 4-[3-[2-[2-(3-aminopropoxy)ethoxy]ethoxy]propylamino]-4-oxo-butanoyl; γGlu = O=C(O)[C@H](CCC(=O)[*:2])N[*:1]; Palmitoyl = CCCCCCCCCCCCCCCC(=O)*; αMeF = C[C@](N)(Cc1ccccc1)C(=O)O; αMeK = C[C@](N)(CCCCN)C(=O)O; Aib = CC(C)(N)C(=O)O
Give a bare numeral; the unit nM is implied.

Write down EC50 (nM), OVCAR 5 cells (cAMP) measured for item Ac-LEGREKVRAK(Ac)I[Aib][Aib]EGK([TTDS-TTDS-TTDS-γGlu-γGlu-γGlu-Palmitoyl])ST[αMeF]SRRAK(Ac)-NH2 [Relaxin peptide analogue of SEQ ID NO: 89]
0.1

Write down EC50 (nM), OVCAR 5 cells (cAMP) measured for item Ac-LEGREKVRAK(Ac)I[Aib][Aib]EGK([TTDS-TTDS-TTDS-γGlu-γGlu-γGlu-Palmitoyl])STWS[αMeK]RAK(Ac)-NH2 [Relaxin peptide analogue of SEQ ID NO: 11]
0.83

Write down EC50 (nM), OVCAR 5 cells (cAMP) measured for item Ac-LEGREKVRAK(Ac)I[Aib][Aib]EGK([TTDS-TTDS-TTDS-γGlu-γGlu-γGlu-Palmitoyl])STW[dS]KRAK(Ac)-NH2 [Relaxin peptide analogue of SEQ ID NO: 44]
2.2

Write down EC50 (nM), OVCAR 5 cells (cAMP) measured for item Ac-LEGREKVRAK(Ac)I[Aib][Aib]EGK([TTDS-TTDS-TTDS-γGlu-γGlu-γGlu-Palmitoyl])SKWS[Aib]RKK(Ac)-NH2 [Relaxin peptide analogue of SEQ ID NO: 83]
0.25
